Hey, just so you know, these numbers are from patent US20180044434A1.

O.D. 490/630 at 0.03125 µg/mL values, listed per item
molecular target: T1, full-length recombinant human PAD4 (human, UniProt Q9UM07 1-663); experiment: ELISA, immobilized human PAD4
T1 construct: Full-length recombinant; also called peptidylarginine deiminase 4
T1 sequence (Q9UM07 whole entry): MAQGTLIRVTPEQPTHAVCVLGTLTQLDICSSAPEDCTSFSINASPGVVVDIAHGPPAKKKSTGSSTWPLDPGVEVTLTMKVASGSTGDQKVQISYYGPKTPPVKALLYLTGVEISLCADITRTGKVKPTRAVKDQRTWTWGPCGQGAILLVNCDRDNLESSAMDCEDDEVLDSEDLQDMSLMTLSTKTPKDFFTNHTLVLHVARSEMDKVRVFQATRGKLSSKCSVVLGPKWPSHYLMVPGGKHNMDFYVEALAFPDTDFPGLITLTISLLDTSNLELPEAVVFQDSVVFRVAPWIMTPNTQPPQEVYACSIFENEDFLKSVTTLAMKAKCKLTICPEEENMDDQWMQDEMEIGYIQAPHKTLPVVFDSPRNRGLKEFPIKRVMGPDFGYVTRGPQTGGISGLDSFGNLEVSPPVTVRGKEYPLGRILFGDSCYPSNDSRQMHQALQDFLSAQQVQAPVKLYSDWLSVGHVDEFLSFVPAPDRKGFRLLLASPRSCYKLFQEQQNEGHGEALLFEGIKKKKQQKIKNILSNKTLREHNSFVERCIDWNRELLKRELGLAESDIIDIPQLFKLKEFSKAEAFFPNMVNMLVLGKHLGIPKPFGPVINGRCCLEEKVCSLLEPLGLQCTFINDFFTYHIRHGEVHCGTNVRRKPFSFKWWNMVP
No unit in the answer, please; the number alone is enough.

humanized anti-PAD4 antibody derived from H7, VH H4.15 / VL L4.06 (antibody, IgG1, V domains shown, IgG1 kappa; also called H7 H4.15/L4.06) VH: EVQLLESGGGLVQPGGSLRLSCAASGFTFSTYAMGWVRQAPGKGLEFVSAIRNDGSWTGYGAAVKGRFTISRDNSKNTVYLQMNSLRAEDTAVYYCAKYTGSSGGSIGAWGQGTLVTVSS VL: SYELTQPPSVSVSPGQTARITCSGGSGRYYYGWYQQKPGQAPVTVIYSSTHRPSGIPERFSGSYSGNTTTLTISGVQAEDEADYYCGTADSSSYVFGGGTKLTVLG = 1.82

// recorded O.D. 490/630 at 0.03125 µg/mL for humanized anti-PAD4 antibody derived from G8, VH H4.32 / VL L4.17 (antibody, IgG1, V domains shown, IgG1 kappa; also called G8 H4.32/L4.17) VH: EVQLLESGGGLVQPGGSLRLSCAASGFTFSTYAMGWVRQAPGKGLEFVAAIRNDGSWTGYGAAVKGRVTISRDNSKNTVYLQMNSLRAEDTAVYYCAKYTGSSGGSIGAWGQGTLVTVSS VL: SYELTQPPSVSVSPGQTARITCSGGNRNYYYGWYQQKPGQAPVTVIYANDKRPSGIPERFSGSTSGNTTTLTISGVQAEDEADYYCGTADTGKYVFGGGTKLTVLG : 1.83

For reference, reported O.D. 490/630 at 0.03125 µg/mL for humanized anti-PAD4 antibody derived from G8, VH H4.32 / VL L4.06 (antibody, IgG1, V domains shown, IgG1 kappa; also called G8 H4.32/L4.06) VH: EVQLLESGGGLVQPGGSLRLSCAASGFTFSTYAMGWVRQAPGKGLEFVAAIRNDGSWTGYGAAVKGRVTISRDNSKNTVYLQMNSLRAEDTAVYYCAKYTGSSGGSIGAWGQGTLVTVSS VL: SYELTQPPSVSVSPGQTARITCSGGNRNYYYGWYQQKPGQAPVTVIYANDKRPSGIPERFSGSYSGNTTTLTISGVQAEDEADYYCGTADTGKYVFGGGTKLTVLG stands at 1.82

Lookup result for humanized anti-PAD4 antibody derived from H7, VH H4.32 / VL L4.06 (antibody, IgG1, V domains shown, IgG1 kappa; also called H7 H4.32/L4.06) VH: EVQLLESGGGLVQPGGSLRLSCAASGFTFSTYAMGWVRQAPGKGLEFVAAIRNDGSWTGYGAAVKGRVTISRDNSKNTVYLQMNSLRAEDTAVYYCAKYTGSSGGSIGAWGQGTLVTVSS VL: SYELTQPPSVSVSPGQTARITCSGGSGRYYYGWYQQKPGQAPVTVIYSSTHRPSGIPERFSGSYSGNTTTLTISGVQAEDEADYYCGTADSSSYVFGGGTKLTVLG ; measured O.D. 490/630 at 0.03125 µg/mL: 1.9
